These measurements were taken from patent US9498463B2.

# PROCEDURE_TEXT: in vitro
Friendly reminder: CC50 below 2 µg/mL is Yes, at or above is No.

INSERT INTO assay_data (compound, label_class) VALUES
  ('CC(C)=CCc1c2c(c(O)c3c1O[C@]1(C)CCC4C3C1C4(C)C)C(=O)C1=C[C@@H]3CC4C(C)(C)OC(C/C=C(/C)C(=O)O)(C3=O)[C@@]14O2 [Gh-2607-B]', 'Yes'),
  ('CC(C)=CCC[C@]1(C)C=Cc2c(O)c3c(c(CC=C(C)C)c2O1)O[C@]12C(=CC4CC1C(C)(C)O[C@]2(C/C=C(/C)C(=O)O)C4=O)C3=O [Gh-2605, gambogic acid]', 'Yes'),
  ('CC(C)=CCC/C(C)=C/Cc1c(O)c(CC=C(C)C)c2c(c1O)C(=O)C1=CC3CC4C(C)(C)O[C@](CC=C(C)C)(C3=O)[C@@]14O2 (stereo in doubt) [Gh-4301, desoxygambogenin]', 'Yes'),
  ('CC(C)=CCC[C@]1(C)C[C@H](O)c2c(O)c3c(c(CC=C(C)C)c2O1)O[C@]12C(=C[C@@H]4CC1C(C)(C)O[C@]2(C/C=C(/C)C(=O)O)C4=O)C3=O [Gh-2641-1, neogambogic acid]', 'No'),
  ('CC(C)=CCC[C@@]1(C)C=Cc2c(O)c3c(c(CC=C(C)C)c2O1)O[C@]12C(=C[C@@H]4CC1C(C)(C)O[C@]2(C/C=C(\C)C(=O)O)C4=O)C3=O [Gh-1642, epiisogambogic acid]', 'Yes'),
  ('CC(C)=CCC[C@]1(C)C=Cc2c(O)c3c(c(CC=C(C)C)c2O1)O[C@]12C(=C[C@@H]4CC1C(C)(C)O[C@]2(C/C=C(/CO)C(=O)O)C4=O)C3=O [Gh-1601-A, 30-hydroxygambogic acid]', 'No'),
  ('CC(C)=CCc1c2c(c(O)c3c1O[C@]14C(=C[C@@H]5CC1C(C)(C)O[C@]4(C/C=C(\C)C=O)C5=O)C3=O)C=CC(C)(C)O2 [Gh-2501, isomorellin]', 'Yes'),
  ('CC(C)=CCC/C(C)=C/Cc1c(O)c(CC=C(C)C)c2c(c1O)C(=O)C1=C[C@@H]3CC4C(C)(C)O[C@](C/C=C(/C)C(=O)O)(C3=O)[C@@]14O2 [Gh-2505, gambogenic acid]', 'No');

# strict comparison: is reported CC50 < 2 µg/mL? input = CC(C)=CCc1c2c(c(O)c3c1O[C@@]1(C)CCC4C3C1C4(C)C)C(=O)C1=C[C@@H]3CC4C(C)(C)O[C@](C/C=C(/C)C(=O)O)(C3=O)[C@@]14O2 [Gh-2607-1A]
Yes

Check if CC50 falls below 2 µg/mL for C=C(C)[C@@H]1CC[C@@]2(C)CC1c1c(O)c3c(c(CC=C(C)C)c1O2)O[C@]12C(=C[C@@H]4CC1C(C)(C)O[C@]2(/C=C/C(C)C(=O)O)C4=O)C3=O (some centres unmarked) [Gh-2507] .
No

Dear colleague, could you confirm whether CC50 of CC(C)=CCC[C@]1(C)C=Cc2c(O)c3c(c(CC=C(C)C)c2O1)O[C@]12C(=C[C@@H]4CC1C(C)(C)O[C@]2(C/C=C(\C)C(=O)O)C4=O)C3=O [Gh-1641, isogambogic acid] falls below 2 µg/mL? Thanks.
Yes

Is 2 µg/mL strictly greater than the compound's reported CC50? compound: C=C(C)C1CC[C@]2(C)C[C@H]1c1c(O)c3c(c(CC=C(C)C)c1O2)O[C@]12C(=C[C@@H]4CC1C(C)(C)OC2(C/C=C(/C)C(=O)O)C4=O)C3=O (some centres unmarked) [Gh-2603-2, gambogellic acid]
Yes

Dear reviewer, please state whether CC(C)=CCC[C@@]1(C)C=Cc2c(O)c3c(c(CC=C(C)C)c2O1)O[C@]12C(=C[C@@H]4CC1C(C)(C)O[C@]2(C/C=C(/C)C(=O)O)C4=O)C3=O [Gh-2606, epigambogic acid] has CC50 strictly beneath 2 µg/mL.
Yes

Input C=C(C)[C@@H]1CC[C@@]2(C)CC1c1c(O)c3c(c(CC=C(C)C)c1O2)O[C@]12C(=C[C@@H]4CC1C(C)(C)O[C@]2(C/C=C(/C)C(=O)O)C4=O)C3=O [Gh-2603-1] ; condition: CC50 strictly below 2 µg/mL. Does it hold?
Yes

###

# Tested on: Human hepatocellular carcinoma cell HepG2
# PROCEDURE_TEXT: cells
# CONDITION_CONTEXT: HepG2, read-out: IC50 (50% inhibition concentration)
Note to self: IC50 under 1 µg/mL means MET, ties and anything higher get NOT MET.

As a guide, the following entries are already answered.
INSERT INTO measurements (molecule, label_class) VALUES
  ('CC(C)=CCC/C(C)=C/Cc1c(O)c(CC=C(C)C)c2c(c1O)C(=O)C1=C[C@@H]3CC4C(C)(C)O[C@](C/C=C(/C)C(=O)O)(C3=O)[C@@]14O2', 'NOT MET'),
  ('CC(C)=CCc1c2c(c(O)c3c1O[C@@]1(C)CCC4C3C1C4(C)C)C(=O)C1=C[C@@H]3CC4C(C)(C)O[C@](C/C=C(/C)C(=O)O)(C3=O)[C@@]14O2', 'MET'),
  ('CC(C)=CCC[C@]1(C)C[C@H](O)c2c(O)c3c(c(CC=C(C)C)c2O1)O[C@]12C(=C[C@@H]4CC1C(C)(C)O[C@]2(C/C=C(/C)C(=O)O)C4=O)C3=O', 'NOT MET'),
  ('CC(C)=CCC[C@@]1(C)C=Cc2c(O)c3c(c(CC=C(C)C)c2O1)O[C@]12C(=C[C@@H]4CC1C(C)(C)O[C@]2(C/C=C(/C)C(=O)O)C4=O)C3=O [Gh-2606, epigambogic acid]', 'MET');

Next, consider the following molecule.
In the record for CC(C)=CCC[C@@]1(C)C=Cc2c(O)c3c(c(CC=C(C)C)c2O1)O[C@]12C(=C[C@@H]4CC1C(C)(C)O[C@]2(C/C=C(\C)C(=O)O)C4=O)C3=O [Gh-1642, epiisogambogic acid] , is IC50 less than 1 µg/mL?
NOT MET

###

# Test system: Human hepatocellular carcinoma cell HepG2
# PROCEDURE_TEXT: cells
# CONDITION_CONTEXT: HepG2, read-out: IC50 (50% inhibition concentration)
RESULT_TYPE: IC50 (µg/mL)
Write it as a number; the unit µg/mL goes unstated.

Look over these answered cases.
INSERT INTO results (compound, result_type, value_reported) VALUES
  ('CC(C)=CCc1c2c(c(O)c3c1O[C@]14C(=C[C@@H]5CC1C(C)(C)O[C@]4(C/C=C(\C)C=O)C5=O)C3=O)C=CC(C)(C)O2 [Gh-2501, isomorellin]', 'IC50', 2.2),
  ('CC(C)=CCC/C(C)=C/Cc1c(O)c(CC=C(C)C)c2c(c1O)C(=O)C1=CC3CC4C(C)(C)O[C@](CC=C(C)C)(C3=O)[C@@]14O2 (stereo in doubt) [Gh-4301, desoxygambogenin]', 'IC50', 12),
  ('CC(C)=CCC[C@]1(C)C=Cc2c(O)c3c(c(CC=C(C)C)c2O1)O[C@]12C(=C[C@@H]4CC1C(C)(C)O[C@]2(C/C=C(\C)C(=O)O)C4=O)C3=O [Gh-1641, isogambogic acid]', 'IC50', 0.86),
  ('CC(C)=CCc1c2c(c(O)c3c1O[C@]1(C)CCC4C3C1C4(C)C)C(=O)C1=C[C@@H]3CC4C(C)(C)OC(C/C=C(/C)C(=O)O)(C3=O)[C@@]14O2 [Gh-2607-B]', 'IC50', 0.31);

Tell me reported IC50 for C=C(C)[C@@H]1CC[C@@]2(C)CC1c1c(O)c3c(c(CC=C(C)C)c1O2)O[C@]12C(=C[C@@H]4CC1C(C)(C)O[C@]2(/C=C/C(C)C(=O)O)C4=O)C3=O (some centres unmarked) [Gh-2507] , tested with Human hepatocellular carcinoma cell HepG2.
1.7

###

# System: Human umbilical venal epithelial cell (HUVEC)
# PROCEDURE_TEXT: in vitro
# CONDITION_CONTEXT: HUVEC, normal human cell line
Form field: LC50 (50% lethal concentration) (one value per entry).
The answer is to be given in µg/mL; state only the numeric part.

INSERT INTO assay_data (compound, value_reported) VALUES
  ('CC(C)=CCC[C@]1(C)C=Cc2c(O)c3c(c(C(O)C4OC4(C)C)c2O1)O[C@]12C(=C[C@@H]4CC1C(C)(C)OC2(C/C=C(/C)C(=O)O)C4=O)C3=O (some centres unmarked)', 8.4),
  ('CC(C)=CCC[C@@]1(C)C=Cc2c(O)c3c(c(C(O)C4OC4(C)C)c2O1)O[C@]12C(=C[C@@H]4CC1C(C)(C)OC2(C/C=C(/C)C(=O)O)C4=O)C3=O (some centres unmarked)', 13.9),
  ('C=C(C)C1CC[C@@]2(C)Oc3c(CC=C(C)C)c4c(c(O)c3[C@@H]1C2O)C(=O)C1=C[C@@H]2CC3C(C)(C)OC(C/C=C(/C)C(=O)O)(C2=O)[C@@]13O4 (stereo in doubt)', 3.4),
  ('C=C(C)C(O)CC[C@]1(C)C=Cc2c(O)c3c(c(CC=C(C)C)c2O1)O[C@]12C(=C[C@@H]4CC1C(C)(C)OC2(C/C=C(/C)C(=O)O)C4=O)C3=O (some centres unmarked)', 1.4);

Query: LC50 (50% lethal concentration); subject: CC(C)=CCC[C@@]1(C)C=Cc2c(O)c3c(c(CC4OC4(C)C)c2O1)O[C@]12C(=C[C@@H]4CC1C(C)(C)OC2(C/C=C(/C)C(=O)O)C4=O)C3=O (some centres unmarked)
3.3

I have this compound here, "CC(C)=CCc1c2c(c(O)c3c1O[C@]14C(=C[C@@H]5CC1C(C)(C)OC4(C/C=C(/C)C(=O)O)C5=O)C3=O)C=C[C@@](C)(C/C=C/C(C)(C)O)O2" , and I need its recorded LC50 (50% lethal concentration).
2.5

Form field: reported LC50 (50% lethal concentration) of CC(C)=CCc1c2c(c(O)c3c1O[C@]14C(=C[C@@H]5CC1C(C)(C)OC4(C/C=C(\C)C(=O)O)C5=O)C3=O)C=CC(C)(C/C=C\C(C)(C)O)O2 (stereo in doubt)
3.3

Entry under review: CC(C)=CCC[C@]1(C)C=Cc2c(O)c3c(c(CC4OC4(C)C)c2O1)O[C@]12C(=C[C@@H]4CC1C(C)(C)OC2(C/C=C(/C)C(=O)O)C4=O)C3=O (some centres unmarked) . Reported LC50 (50% lethal concentration)?
0.85
